# system-tested: CDK9 (Homo sapiens, UniProt P50750)
# Sequence (P50750 whole entry): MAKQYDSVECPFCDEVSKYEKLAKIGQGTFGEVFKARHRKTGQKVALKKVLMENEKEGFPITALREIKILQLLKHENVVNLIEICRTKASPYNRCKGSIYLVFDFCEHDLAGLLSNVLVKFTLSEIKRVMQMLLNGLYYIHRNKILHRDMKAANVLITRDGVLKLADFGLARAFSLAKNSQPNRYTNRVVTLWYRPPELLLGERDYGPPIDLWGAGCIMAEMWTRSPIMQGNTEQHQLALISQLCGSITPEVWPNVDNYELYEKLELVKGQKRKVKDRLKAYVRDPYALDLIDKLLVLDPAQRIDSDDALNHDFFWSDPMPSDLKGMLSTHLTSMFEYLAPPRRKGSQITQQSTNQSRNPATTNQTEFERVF
# assay-explanation: CDK9 degradation in MOLT4 cells
# Format: cell-based
# run-parameters: pre-treatment before 955
Counter-ions that a name gives are not always drawn. Residues, ends and D or L forms follow the SMILES beside them. *: point of attachment. Cbz = O=C(OCc1ccccc1)*
reported-metric: effect of pre-treatment on CDK9 degradation by 955

CCN(CC)CCCC(C)Nc1ccnc2cc(Cl)ccc12 (stereo not shown) [chloroquine] = does not block
NS(=O)(=O)OC[C@H]1C[C@@H](Nc2ccnc3cc(-c4cccc(SC(F)(F)F)c4)nn23)[C@H](O)[C@@H]1O [TAK-243] = blocks
CCOC(=O)c1ccc(N2NC(=O)/C(=C/c3ccc([N+](=O)[O-])o3)C2=O)cc1 [PYR-41] = blocks
NS(=O)(=O)OC[C@@H]1C[C@@H](n2ccc3c(N[C@H]4CCc5ccccc54)ncnc32)C[C@@H]1O [MLN4924] = blocks
CC(C)(C)c1cnc(CSc2cnc(NC(=O)C3CCNCC3)s2)o1 [SNS-032] = blocks

Record lookup: for CDK9 (Homo sapiens, UniProt P50750), what effect of pre-treatment on CDK9 degradation by 955 belongs to COC(=O)[C@]12CCC(C)(C)C[C@H]1[C@H]1C(=O)C=C3[C@@]4(C)C=C(C#N)C(=O)C(C)(C)[C@@H]4CC[C@@]3(C)[C@]1(C)CC2 [CDDO-ME] ? blocks

Another: CC1(C)CC[C@]2(C(=O)n3ccnc3)CC[C@]3(C)[C@H](C(=O)C=C4[C@@]5(C)C=C(C#N)C(=O)C(C)(C)[C@@H]5CC[C@]43C)[C@@H]2C1 [CDDO-IM] blocks

Another: CC(C)[C@H](NC(=O)c1ccc2ccccc2n1)C(=O)N[C@@H](CC(=O)O)C(=O)COc1c(F)cccc1F [QVD] does not block

Another: COc1cc(/C=C/C(=O)N2CCC=CC2=O)cc(OC)c1OC [PL] blocks

Another: CC(C)C[C@H](NC(=O)[C@H](Cc1ccccc1)NC(=O)c1cnccn1)B(O)O [bortezomib] blocks

Another: CO/C1=C\C(C)=C\[C@@H](C)[C@@H](O)[C@@H](C)C/C(C)=C/C=C/[C@H](OC)[C@@H]([C@@H](C)[C@@H](O)[C@H](C)[C@@]2(O)C[C@@H](O)[C@H](C)[C@@H](C(C)C)O2)OC1=O [Baf-A1] does not block

Another: CC(C)C[C@@H](C=O)NC(=O)[C@H](CC(C)C)NC(=O)[C@H](CC(C)C)NC(=O)OCc1ccccc1 [MG132] (Cbz-Leu-Leu-Leu-aldehyde) blocks

Another: COC(=O)/C=C/C(=O)OC [DMF, dimethyl fumarate] blocks
